# Tested on: M19-MEL
# Experiment description: NCI tumour cell line growth inhibition, 48 h
Active and inactive are the calls of the source. No stated cut-off is given here; in the data, active = GI50 up to about 1.1 µM and inactive = higher.
Classes to choose from: active, inactive

Compound	Classification
CC1=C(C(=O)NCc2ccccc2)C(c2ccc(Cl)c(Cl)c2)C(C(=O)NCc2ccccc2)=C(C)N1	inactive
C=CCCCCC1CCC2CCC(CCCCC=C)N12 (stereo unspecified)	inactive
O=C(NNc1ccc([N+](=O)[O-])cc1)C1OC(CO)C(O)C1O (stereo unspecified)	inactive
COC(C(O)c1ccc2c(c1)OCO2)P(=O)(c1ccccc1)c1ccccc1 (stereo unspecified)	inactive
NC(CCCCNCc1ccccc1)C(=O)O (stereo unspecified)	inactive

Fill in: this test's call for CC(C)=CC1CCc2ccccc2N1S(=O)(=O)c1ccc(C)cc1 (stereo unspecified) is ___ inactive

Check CC12CCC(C)(c3cc(O)c(O)cc31)c1cc(O)c(O)cc12 too. inactive

Also, Cc1cccc(C)c1NC(=O)CCC(=O)/N=C(\N)NC#N please. inactive

Follow-up entry: O=C(Nc1ccccc1)O/N=C1/CCCC/C1=C\c1ccccc1 inactive

// same read-out, input: COC(=O)C1=C(O)c2cc3c(cc2[C@H](c2cc(OC)c(OC)c(OC)c2)C1C(=O)OC)OCO3 (stereo partly specified) inactive

Try this compound next: COc1cc(C2C(C(=O)Nc3ccccc3C)=C(C)NC(C)=C2C(=O)Nc2ccccc2C)ccc1O inactive

Item: COc1cc2c(c(OC)c1OC)-c1ccc(OC)c(=O)cc1C(NC(=O)COc1ccccc1)CC2 (stereo unspecified) active

Then what about the compound Cn1cc(C2(C)CC(C)(C)c3c2n(C)c2ccccc32)c2ccccc21 (stereo unspecified) ? inactive

And what about the compound N#C/C(=C/c1ccco1)C(=O)c1ccccc1 ? inactive

// next record COc1ccc(-c2cc(O)c3cc4c(cc3n2)OCO4)c(OC)c1 inactive

Ok, now CN1C(=O)C(=CN(C)c2ccccc2)C(=O)N(C)C1=O inactive

Entry CC1CCCC(C(O)CC2CC(=O)N(c3ccccc3)C(=O)C2)C1=O (stereo unspecified) please inactive

These entries and their values trace back to ChEMBL document CHEMBL1201862.
